# ASSAY SYSTEM: 5-hydroxytryptamine receptor 1A (Homo sapiens, UniProt P08908); also: assay procedure not described here
# Sequence (P08908 whole entry): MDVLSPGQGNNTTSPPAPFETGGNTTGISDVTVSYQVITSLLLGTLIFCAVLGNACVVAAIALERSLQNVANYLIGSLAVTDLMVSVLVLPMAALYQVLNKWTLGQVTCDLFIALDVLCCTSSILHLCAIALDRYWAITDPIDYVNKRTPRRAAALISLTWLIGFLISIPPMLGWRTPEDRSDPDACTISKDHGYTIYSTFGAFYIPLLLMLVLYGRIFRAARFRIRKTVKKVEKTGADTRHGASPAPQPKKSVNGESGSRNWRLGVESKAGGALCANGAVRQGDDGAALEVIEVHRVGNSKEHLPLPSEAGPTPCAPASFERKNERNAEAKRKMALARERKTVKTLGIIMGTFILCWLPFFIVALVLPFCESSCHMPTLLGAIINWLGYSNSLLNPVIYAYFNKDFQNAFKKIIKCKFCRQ
# Assay type: functional, cell-based
Provide the reported AC50 of each item.

Solved cases (5 shown):
| MOLECULE | MEAS VALUE |
| --- | --- |
| NC[C@H]1CC[C@H](C(=O)O)CC1 | > 10 µM |
| CCOc1cc(N)c([N+](=O)[O-])cc1C(=O)NC1CCN(CC2CC=CCC2)CC1 (centres undefined) [CINITAPRIDE] | > 30 µM |
| COCC1=C(C(=O)OC(C)OC(=O)OC(C)C)N2C(=O)[C@@H](NC(=O)/C(=N\OC)c3csc(N)n3)[C@H]2SC1 (some centres undefined) | > 30 µM |
| CC(C(=O)O)c1ccc(N2CC=CC2)c(Cl)c1 (centres undefined) | > 10 µM |
| Nc1ncnc2c1ncn2[C@@H]1O[C@H](COP(=O)(O)O)[C@@H](O)[C@H]1O [ADENOSINE PHOSPHATE] | > 30 µM |

// each listed molecule needs a value for AC50
1. CC1=CC(=O)c2ccccc2C1=O
2. NS(=O)(=O)c1cc(Cl)c(Cl)c(S(N)(=O)=O)c1 [DICHLORPHENAMIDE]
3. CC(C)(N)Cc1ccc(Cl)cc1

1: > 10 µM; 2: > 10 µM; 3: > 10 µM

AC50 lookup needed for CN(C/C=C/c1ccccc1)Cc1cccc2ccccc12 , thanks.
> 10 µM

###

# collection of AC50 values tested on Sodium-dependent noradrenaline transporter (Homo sapiens, UniProt P23975); also: assay procedure not described here
# Sequence (P23975 whole entry): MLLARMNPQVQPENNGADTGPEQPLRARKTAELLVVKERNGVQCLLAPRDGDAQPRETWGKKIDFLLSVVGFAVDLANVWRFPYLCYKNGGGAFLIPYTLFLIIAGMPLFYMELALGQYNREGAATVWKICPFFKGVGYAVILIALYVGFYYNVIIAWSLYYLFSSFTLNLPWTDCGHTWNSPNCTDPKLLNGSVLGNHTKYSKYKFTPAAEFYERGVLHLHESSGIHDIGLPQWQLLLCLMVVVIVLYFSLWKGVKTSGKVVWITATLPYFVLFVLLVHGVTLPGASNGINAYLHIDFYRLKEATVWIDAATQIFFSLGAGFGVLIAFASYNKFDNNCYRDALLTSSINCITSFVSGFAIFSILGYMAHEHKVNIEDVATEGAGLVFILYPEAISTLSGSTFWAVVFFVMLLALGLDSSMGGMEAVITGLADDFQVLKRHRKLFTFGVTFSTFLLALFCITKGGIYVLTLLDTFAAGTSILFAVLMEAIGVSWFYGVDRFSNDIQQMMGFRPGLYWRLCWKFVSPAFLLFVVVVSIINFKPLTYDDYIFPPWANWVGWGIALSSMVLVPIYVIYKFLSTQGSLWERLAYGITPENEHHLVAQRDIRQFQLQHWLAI

Solved cases (6 shown):
| MOLECULE | MEAS VALUE |
| --- | --- |
| C[C@H]1C[C@@H]2[C@H]([C@@H](O)C[C@@]3(C)[C@H]2CC[C@]3(O)C(=O)CO)[C@@]2(C)C=CC(=O)C=C12 | > 10 µM |
| O=C(CCCCCCC(=O)Nc1ccccc1)NO | > 30 µM |
| N[C@@H](CSCC(=O)O)C(=O)O | > 30 µM |
| Cc1c(O)c(=O)ccn1C | > 30 µM |
| C[C@H]1C[C@@H]2[C@H]([C@@H](O)C[C@@]3(C)[C@H]2CC[C@]3(O)C(=O)COC(=O)CCC(=O)O)[C@@]2(C)C=CC(=O)C=C12 [METHYLPREDNISOLONE HEMISUCCINATE] | > 30 µM |
| O=C(Cn1ccnc1[N+](=O)[O-])NCc1ccccc1 | > 30 µM |

// each listed molecule needs a value for AC50
1. CCN1CCC[C@H]1CNC(=O)c1cc(S(N)(=O)=O)ccc1OC [LEVOSULPIRIDE]
2. Cc1cc2c(OCC(CNC(C)(C)C)OC(=O)c3ccccc3)cccc2[nH]1 (stereo not drawn)

["> 30 µM", "10.3 µM"]

###

# collection of AC50 values tested on UniProt:Q99808
# Sequence (Q99808 whole entry): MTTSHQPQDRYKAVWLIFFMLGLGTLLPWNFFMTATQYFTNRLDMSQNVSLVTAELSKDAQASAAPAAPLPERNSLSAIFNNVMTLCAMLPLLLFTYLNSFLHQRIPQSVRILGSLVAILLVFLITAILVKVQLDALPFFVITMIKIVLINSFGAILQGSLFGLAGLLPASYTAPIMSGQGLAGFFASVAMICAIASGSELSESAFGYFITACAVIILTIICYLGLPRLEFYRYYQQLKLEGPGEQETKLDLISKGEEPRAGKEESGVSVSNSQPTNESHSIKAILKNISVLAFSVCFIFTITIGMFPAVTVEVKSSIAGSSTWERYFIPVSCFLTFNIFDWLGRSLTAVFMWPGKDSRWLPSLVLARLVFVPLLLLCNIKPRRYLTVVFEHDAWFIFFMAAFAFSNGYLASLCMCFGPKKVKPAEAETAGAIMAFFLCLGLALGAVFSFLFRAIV

Solved cases (4 shown):
| MOLECULE | EXPERIMENTAL READOUT | MEAS VALUE |
| --- | --- | --- |
| N[C@@H](C(=O)N[C@@H]1C(=O)N2C(C(=O)O)=C(Cl)CS[C@H]12)c1ccccc1 [CEFACLOR ANHYDROUS] | AC50 | > 30 µM |
| CC1=CC(=O)c2ccccc2C1=O [MENADIONE] | AC50 | > 10 µM |
| CC(C(=O)O)c1ccc(N2CC=CC2)c(Cl)c1 (stereo not drawn) [PIRPROFEN] | AC50 | > 30 µM |
| Cc1nc2ccc(CN(C)c3ccc(C(=O)N[C@@H](CCC(=O)O)C(=O)O)s3)cc2c(=O)[nH]1 [RALTITREXED] | AC50 | > 30 µM |

// each listed molecule needs a value for AC50
1. C=C1C[C@@H]2[C@H](CC[C@]3(C)C(=O)CC[C@@H]23)[C@@]2(C)C=CC(=O)C=C12 [EXEMESTANE]
2. COc1ccc2c(c1)c(CC(=O)OCC(=O)O)c(C)n2C(=O)c1ccc(Cl)cc1 [ACEMETACIN]
3. CC(C)[N+](C)(CCC(C(N)=O)(c1ccccc1)c1ccccc1)C(C)C [ISOPROPAMIDE]

1: > 30 µM; 2: > 30 µM; 3: > 10 µM

AC50 lookup needed for CN(CCCN1c2ccccc2CCc2ccccc21)CC(=O)c1ccc(Cl)cc1 [LOFEPRAMINE] , thanks.
> 30 µM
